B1: C22orf15 (parent)
chain: RGRHEQSPTSRPRKVSSLPPRSC

Variants of: B1
procedureDetails: protein stability index of a GFP-peptide fusion (GPS, HEK-293T) (PSI 1-6); higher = more stable;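 note: lentivirally expressed fusions sorted by FACS into six bins by GFP to DsRed ratio, PSI derived from sequencing read proportions per bin multiplied by bin number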
runConditions: c terminus: native
measuredProperty: protein stability index
// no unit, no text: just the number

L18C :: 2.88
S10P :: 1.61
H4T :: 3.06
R11T :: 2.51
Q6V :: 3.92
P19Q :: 1.44

Enquiry: May I ask what protein stability index has been recorded for P19A ?
Return: 4.11

Enquiry: Given the entry S7R , report its measured protein stability index.
Return: 2.69

Enquiry: Any idea what its protein stability index is? The variant is G2S
Return: 3.1

Enquiry: Fill blank: measured protein stability index of the variant P12Y is ____.
Return: 3.13

Enquiry: Entry R13T : reported protein stability index = ?
Return: 2.73

Enquiry: Request the reported protein stability index associated with V15L
Return: 3.74

Enquiry: # query: protein stability index of entry H4N
Return: 3.03

Enquiry: Record request: protein stability index value, item K14G
Return: 3.13

Enquiry: Name the reported protein stability index value associated with the variant K14E
Return: 3.42

Enquiry: Recorded protein stability index for V15G , please?
Return: 2.29

Enquiry: Query (variant): P12D ; field requested: protein stability index
Return: 2.8

Enquiry: Consider the variant V15K and give its measured protein stability index.
Return: 3.42

Enquiry: Please give the measured protein stability index for this variant: C23W
Return: 2.64

Enquiry: Quick one: protein stability index of L18W ?
Return: 3.64

Enquiry: Look at this variant and give its reported protein stability index. R21Y
Return: 4.92

Enquiry: Field request: protein stability index | item: S7D
Return: 2.76

Enquiry: # protein stability index lookup, item S17N
Return: 2.99

Enquiry: Find the recorded protein stability index belonging to K14W and report it.
Return: 1.93

Enquiry: Please report the recorded protein stability index for E5P .
Return: 2.93

Enquiry: Field request: protein stability index | item: C23T
Return: 2.97

Enquiry: What measured protein stability index goes with S10D ?
Return: 1.09

Enquiry: Looking for the measured protein stability index of S10C , can you help?
Return: 2.51
